assay protocol: photoluminescence quantum yield (fraction); solvent given as SMILES
condition description: in CO
photoluminescence quantum yield less than 0.03 is t; photoluminescence quantum yield greater than or equal to 0.03 is f.

Take a look at these entries with their results.
molecule	category label
CCN(CC)c1ccc2cc(/C=C(\C#N)c3nc4ccccc4s3)c(=O)oc2c1	t
Cc1ccc(-c2[nH]c(=O)n3c2-c2ccccc2C3=O)c(O)c1	f
COc1cccc2c1C(=O)c1ccccc1-2	t
CN(C)c1ccc(/C=C/C=C/c2nc3ccccc3s2)cc1	t
O=C([O-])c1ccccc1-c1c2cc(Br)c(=O)c(Br)c-2oc2c(Br)c([O-])c(Br)cc12	f

Dear reviewer, please state whether COC(=O)C(NC(=O)OC(C)(C)C)c1ccc2oc(-c3cccc(Oc4ccccc4)c3)nc2c1 (stereo not given) has photoluminescence quantum yield strictly beneath 0.03. f

Dear reviewer, please state whether O=[N+]([O-])c1ccc(NCCNCc2c3ccccc3cc3ccccc23)c([N+](=O)[O-])c1 has photoluminescence quantum yield strictly beneath 0.03. f

Dear reviewer, please state whether c1csc(-c2cnc(-c3cccs3)c3nonc23)c1 has photoluminescence quantum yield strictly beneath 0.03. f

Dear reviewer, please state whether c1ccc2cc(-n3cnc4ccccc43)ccc2c1 has photoluminescence quantum yield strictly beneath 0.03. f

Provenance of the data: the Deep4Chem optical property database
